molecular target: human CXCR4 (on cells, viral lipoparticles or membrane extracts) (human, UniProt P61073 1-352); assay: cell-based or functional assay
Sequence (P61073 whole entry): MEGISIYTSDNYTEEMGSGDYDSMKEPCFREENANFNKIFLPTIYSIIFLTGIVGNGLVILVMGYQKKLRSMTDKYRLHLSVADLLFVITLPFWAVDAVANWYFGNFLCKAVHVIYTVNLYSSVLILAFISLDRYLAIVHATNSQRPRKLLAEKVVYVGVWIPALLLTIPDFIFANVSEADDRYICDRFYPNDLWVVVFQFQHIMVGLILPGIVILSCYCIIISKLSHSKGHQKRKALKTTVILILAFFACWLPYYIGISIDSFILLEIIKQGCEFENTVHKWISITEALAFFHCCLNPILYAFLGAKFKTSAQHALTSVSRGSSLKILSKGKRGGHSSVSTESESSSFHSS
measurement.type: IC50, CXCL-12 chemotaxis, MOLM-13 (nM)
Value expressed in nM; do not type the unit.

Exam item: Form field: reported IC50, CXCL-12 chemotaxis, MOLM-13 of 281F12-35GS-57A07 (bispecific antibody, FLAG3-His6 also made; also called CXCR4#2-CD123#1; 281F12-57A07) EVQLVESGGGLVQAGDSLRLSCAASGRAFSRYAMGWFRQAPGKEREFVAAIGWGPSKTNYADSVKGRFTISRDNAKNTVYLQMNTLKPEDTAVYSCAAKFVNTDSTWSRSEMYTYWGQGTLVTVSSGGGGSGGGGSGGGGSGGGGSGGGGSGGGGSGGGGSEVQLVESGGGLVQAGGSLRLSCAASGSIFSGNVMGWYRRQAPGKEREWVAAIASGGSIYYRDSVKGRFTISRDNAKNTVYLQMNSLKPEDTAVYYCNSHPPTLPYWGQGTLVTVSS
Marked response: 6.83

From: patent US20160251440A1
